# Ki measurements, system: Coagulation factor IX (Homo sapiens, UniProt P00740)
# Sequence (P00740 47-191 limits assumed): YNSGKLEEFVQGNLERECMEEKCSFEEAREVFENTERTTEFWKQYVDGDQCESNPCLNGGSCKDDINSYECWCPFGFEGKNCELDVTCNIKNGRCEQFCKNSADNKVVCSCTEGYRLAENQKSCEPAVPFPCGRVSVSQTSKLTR
# Sequence (P00740 227-461 limits assumed): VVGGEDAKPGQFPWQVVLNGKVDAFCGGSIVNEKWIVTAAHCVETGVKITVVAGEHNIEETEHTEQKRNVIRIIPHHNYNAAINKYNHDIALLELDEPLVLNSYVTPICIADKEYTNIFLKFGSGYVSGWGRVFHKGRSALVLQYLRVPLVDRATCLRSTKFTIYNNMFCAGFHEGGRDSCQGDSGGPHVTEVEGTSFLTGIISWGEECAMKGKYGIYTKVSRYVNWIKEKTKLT
Give a bare numeral; the unit nM is implied.

Cc1ncn(-c2cc(Cl)c(C(=O)NC[C@@H](c3cccc(F)c3)c3nc4ccc(Cl)cc4[nH]3)c(Cl)c2)n1: 9.8

Problem: Kindly state the measured Ki obtained for "Cc1ncn(-c2cc(Cl)c(C(=O)NC[C@@H](c3cccc(F)c3)c3nc4cc(C)c(Cl)cc4[nH]3)c(Cl)c2)n1" with Coagulation factor IX (Homo sapiens, UniProt P00740).
Solution: 13.6

Problem: Kindly state the measured Ki obtained for "Cc1cc2nc([C@@H](CNC(=O)c3ccc(-n4cnnc4)cc3Cl)c3ccc(F)cc3)[nH]c2cc1C" with Coagulation factor IX (Homo sapiens, UniProt P00740).
Solution: 8.4

Problem: Kindly state the measured Ki obtained for "Cc1ncn(-c2cc(Cl)c(C(=O)NC[C@@H](c3cccc(F)c3)c3nc4c(C)cc(Cl)cc4[nH]3)c(Cl)c2)n1" with Coagulation factor IX (Homo sapiens, UniProt P00740).
Solution: 6.2
